Test system: CB8-MDPP
Experiment: Binding constants of chiral analytes with CB8-MDPP receptor complex, UV/Vis titration
Details: CB8-MDPP (20 µM), H2O, 22 °C; from UV/Vis titrations, estimated error ≤ 10%
Peptide text beside a SMILES is read from it.
// Ka lookup, one value per entry

# example entries with known answers
Any idea what Ka was measured for N[C@@H](Cc1c[nH]c2ccccc12)C(=O)NCC(=O)NCC(=O)O [TrpGlyGly] (H-Trp-Gly-Gly-OH) ?
200 10^3 M^-1

Field entry: N[C@@H](CCC(=O)O)C(=O)N[C@@H](Cc1c[nH]c2ccccc12)C(=O)O [GluTrp] (H-Glu-Trp-OH)
210 10^3 M^-1

Field entry: N[C@@H](Cc1c[nH]c2ccccc12)C(=O)N1CCC[C@H]1C(=O)O [TrpPro] (H-Trp-Pro-OH)
430 10^3 M^-1

Field entry: N[C@@H](CC(=O)O)C(=O)N[C@@H](Cc1ccccc1)C(=O)O [AspPhe] (H-Asp-Phe-OH)
7 10^3 M^-1

Field entry: N[C@@H](Cc1ccccc1)C(=O)NCC(=O)O [PheGly] (H-Phe-Gly-OH)
1900 10^3 M^-1

---
Any idea what Ka was measured for NCC(=O)N[C@@H](Cc1c[nH]c2ccccc12)C(=O)NCC(=O)O [GlyTrpGly] (H-Gly-Trp-Gly-OH) ?
5000 10^3 M^-1

Field entry: CC(C)[C@H](NC(=O)[C@@H](N)Cc1ccccc1)C(=O)O [PheVal] (H-Phe-Val-OH)
1500 10^3 M^-1

====

System: CB8-MDAP
Assay: Binding constants of chiral analytes with CB8-MDAP receptor complex, UV/Vis titration
Conditions: CB8-MDAP (100 µM), H2O, 22 °C; from UV/Vis titrations, estimated error ≤ 10%
Peptide text beside a SMILES is read from it.
measurement.name: Ka

# example entries with known answers
Any idea what Ka was measured for N[C@@H](Cc1c[nH]c2ccccc12)C(=O)N1CCC[C@H]1C(=O)O [TrpPro] (H-Trp-Pro-OH) ?
50 10^3 M^-1

Field entry: N[C@@H](CCC(=O)O)C(=O)N[C@@H](Cc1c[nH]c2ccccc12)C(=O)O [GluTrp] (H-Glu-Trp-OH)
25 10^3 M^-1

Field entry: N[C@@H](CC(=O)O)C(=O)N[C@@H](Cc1ccccc1)C(=O)O [AspPhe] (H-Asp-Phe-OH)
0.8 10^3 M^-1

Field entry: N[C@@H](Cc1ccccc1)C(=O)NCC(=O)O [PheGly] (H-Phe-Gly-OH)
25 10^3 M^-1

Let us move to another entry and its Ka.
Any idea what Ka was measured for CC(C)[C@H](NC(=O)[C@@H](N)Cc1ccccc1)C(=O)O [PheVal] (H-Phe-Val-OH) ?
11 10^3 M^-1
